- Tested on: A498;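 note: growth inhibition of human A498 cells, read out with a cell viability assay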
- assay: cells
- Format: functional, cell-based, Homo sapiens
- stated_conditions: Homo sapiens, A498
- Description: SANGER: Inhibition of human A498 cell growth in a cell viability assay.
pIC50: −log10 of the molar value.
parameter: pIC50

molecule	system	pIC50
O=c1cc(-c2cccc3c2Sc2ccccc2S3)oc(N2CCOCC2)c1	A498	< 5.00
CCC(=O)N1CCN(c2ccc(-n3c(=O)ccc4cnc5ccc(-c6cnc7ccccc7c6)cc5c43)cc2C(F)(F)F)CC1	A498	< 5.92
CCC1=C[C@@H]2CN(C1)Cc1c([nH]c3ccccc13)[C@@](C(=O)OC)(c1cc3c(cc1OC)N(C)[C@H]1[C@@](O)(C(=O)OC)[C@H](OC(C)=O)[C@]4(CC)C=CCN5CC[C@]31[C@@H]54)C2	A498	7.58
CC(=O)O[C@@H]1[C@@H](OC(C)=O)[C@@H](O)[C@H](Oc2c(-c3ccc(O)cc3)oc3cc(O)cc(O)c3c2=O)O[C@H]1C	A498	< 5.00
CNC(=O)c1cc(Oc2ccc(NC(=O)Nc3ccc(Cl)c(C(F)(F)F)c3)cc2)ccn1	A498	< 5.40

Ask: Reported pIC50 for C=CCNC1=C2C[C@@H](C)C[C@H](OC)[C@H](O)[C@@H](C)/C=C(\C)[C@H](OC(N)=O)[C@@H](OC)/C=C\C=C(/C)C(=O)NC(=CC1=O)C2=O : what is it?
Result: 6.99

Ask: // repeat for Cc1ccc(Nc2nccc(N(C)c3ccc4c(C)n(C)nc4c3)n2)cc1S(N)(=O)=O and report
Result: < 5.10
